Reported FACS signal is given for each of the following binders.
- tested target: human CLDN6 fused to GFP, expressed on engineered HEK293T cells (human) (UniProt P56747)
- measurement description: FACS, 293T clone with human CLDN6, 1.5 ug Ab
Please reply with the number alone, leaving off any unit.

Illustrative cases are given below, each with its answer.
INSERT INTO measurements (binder, recorded_value) VALUES
  ('AB9-3 (antibody, V domains shown) VH: QVQLVQSGAEVKKPGASVKMSCKASGYRFTDYNMHWVRQAPGQGLEWIGYINPNNGGTNYAQKFQGRATLTVDTSTSTAYMELSSLRSEDTAVYYCARDYLYFFDCWGQGTLLTVSS VL: DIQMTQSPSSLSASVGDRVTITCLASQTIGTWLAWYQQKPGKAPKLLIYAAASLADGVPSRFSGSGSGTDFTFTISSLQPEDFVTYYCQQLYSIPRTFGQGTKLEIK', 24600),
  ('AB4-11 (antibody, V domains shown) VH: QVQLVQSGAEVKKPGASVKMSCKASGYTFTSYTMHWIRQAPGQGLEWIGYINPSSTYTHYIKKFKDRATLTADKSTSTAYMELSSLRSEDTAVYYCSRGELGGFAYWGQGTLVTVSS VL: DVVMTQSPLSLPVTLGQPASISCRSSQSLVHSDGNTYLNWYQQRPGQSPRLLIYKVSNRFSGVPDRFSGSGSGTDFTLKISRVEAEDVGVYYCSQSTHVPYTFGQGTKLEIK', 61200);

Then this binder:
// FACS signal lookup, binder = AB18-chim (antibody, V domains shown) VH: QVQLKQSGPELEKPGASVKISCKASGYSFTGYNMNWVKQSNGKSLEWIGNIDPYYGGSTYNQKFTGKATLTVDKSSSTAYMQLKSLTSEDSAVYYCARERSGYVFSAMDYWGQGTSVTVSS VL: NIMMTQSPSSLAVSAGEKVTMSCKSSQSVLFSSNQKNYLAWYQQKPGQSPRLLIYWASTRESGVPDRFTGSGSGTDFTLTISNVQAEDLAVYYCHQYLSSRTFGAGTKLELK , result: 135000

Origin of values: patent US20220177583A1
